These entries and their values trace back to ChEMBL document CHEMBL4665722.

assay: Solubility of the compound in water; assay type: physicochemical; details: water
Quantity measured: solubility

Query (molecule): `Cc1nc(C)c(CN2CC/C(=C\c3c(-c4ccccc4)n(C)c4ncccc34)C2=O)nc1C.Cl` ; field requested: solubility
> 94 mg/mL

====

assay: Solubility of the compound in PBS buffer at pH 7.4; assay type: physicochemical
Quantity measured: solubility (µg/mL)
Answers are plain numbers, in µg/mL.

Cc1nc(C)c(CN2CC/C(=C\c3c(-c4ccccc4)n(C)c4ncccc34)C2=O)nc1C; 14

Continue with the compound presented below.
Record request: solubility value, item `COc1cc2c(cc1OC)CN(C(=O)/C=C/c1c(-c3ccccc3)n(C)c3ncccc13)CC2.Cl`
6
